Each item that follows carries a reported half-life at 1 μM.
- procedureSummary: Metabolic stability evaluation, liver microsome assay (RLM)
- Type: in vitro ADME, SD rat
- experimentalSetup: Sprague-Dawley, pH 7.4; rat liver microsomes 0.5 mg/mL, compound 1 μM, NADPH, 37° C.; read-out: RLM t1/2
experimentalReadout: half-life at 1 μM (min)

chemicalstructure=[2H]C([2H])([2H])Oc1ccc(CN2C3CC2CN(c2ccc(-c4cc(OCC(C)(C)O)cn5ncc(C#N)c45)cn2)C3)cn1 experimentalreadout="half-life at 1 μM" resultvalue=137
chemicalstructure=[2H]C([2H])([2H])Oc1ccc(C([2H])([2H])N2C3CC2CN(c2ccc(-c4cc(-c5cnn(C([2H])([2H])[2H])c5)cn5ncc(C#N)c45)cn2)C3)cn1 experimentalreadout="half-life at 1 μM" resultvalue=29.3
chemicalstructure=[2H]C([2H])(c1ccc(OC)nc1)N1C2CC1CN(c1ccc(-c3cc(-c4cnn(C([2H])([2H])[2H])c4)cn4ncc(C#N)c34)cn1)C2 experimentalreadout="half-life at 1 μM" resultvalue=36.6
chemicalstructure=[2H]C([2H])([2H])Oc1ccc(C([2H])([2H])N2C3CC2CN(c2ccc(-c4cc(-c5cnn(C)c5)cn5ncc(C#N)c45)cn2)C3)cn1 experimentalreadout="half-life at 1 μM" resultvalue=25.1
chemicalstructure=[2H]C([2H])([2H])n1cc(-c2cc(-c3ccc(N4CC5CC(C4)N5Cc4ccc(OC)nc4)nc3)c3c(C#N)cnn3c2)cn1 experimentalreadout="half-life at 1 μM" resultvalue=122
chemicalstructure=[2H]C([2H])([2H])Oc1ccc(C([2H])([2H])N2C3CC2CN(c2ccc(-c4cc(OCC(C)(C)O)cn5ncc(C#N)c45)cn2)C3)cn1 experimentalreadout="half-life at 1 μM" resultvalue=128
chemicalstructure=[2H]C([2H])(c1ccc(OC)nc1)N1C2CC1CN(c1ccc(-c3cc(-c4cnn(C)c4)cn4ncc(C#N)c34)cn1)C2 experimentalreadout="half-life at 1 μM" resultvalue=39.5
chemicalstructure=[2H]C([2H])([2H])Oc1ccc(CN2C3CC2CN(c2ccc(-c4cc(-c5cnn(C)c5)cn5ncc(C#N)c45)cn2)C3)cn1 experimentalreadout="half-life at 1 μM" resultvalue=26.9
chemicalstructure=[2H]C([2H])([2H])Oc1ccc(CN2C3CC2CN(c2ccc(-c4cc(-c5cnn(C([2H])([2H])[2H])c5)cn5ncc(C#N)c45)cn2)C3)cn1 experimentalreadout="half-life at 1 μM" resultvalue=28.2
chemicalstructure=[2H]C([2H])(c1ccc(OC)nc1)N1C2CC1CN(c1ccc(-c3cc(OC[C@H]4CNCCO4)cn4ncc(C#N)c34)cn1)C2 experimentalreadout="half-life at 1 μM" resultvalue=263
chemicalstructure=[2H]C([2H])(c1ccc(OC)nc1)N1C2CC1CN(c1ccc(-c3cc(OCC(C)(C)O)cn4ncc(C#N)c34)cn1)C2 experimentalreadout="half-life at 1 μM" resultvalue=118

----------
- procedureSummary: Metabolic stability evaluation, liver microsome assay (HLM)
- Assay type: in vitro ADME
- experimentalSetup: pH 7.4; human liver microsomes 0.5 mg/mL, compound 1 μM, NADPH, 37° C.
experimentalReadout: microsomal CLint at 1 μM

chemicalstructure=[2H]C([2H])([2H])Oc1ccc(C([2H])([2H])N2C3CC2CN(c2ccc(-c4cc(-c5cnn(C)c5)cn5ncc(C#N)c45)cn2)C3)cn1 resultvalue="85.6 µL/min/mg"
chemicalstructure=[2H]C([2H])([2H])Oc1ccc(C([2H])([2H])N2C3CC2CN(c2ccc(-c4cc(OCC(C)(C)O)cn5ncc(C#N)c45)cn2)C3)cn1 resultvalue="92.2 µL/min/mg"
chemicalstructure=[2H]C([2H])(c1ccc(OC)nc1)N1C2CC1CN(c1ccc(-c3cc(OCC(C)(C)O)cn4ncc(C#N)c34)cn1)C2 resultvalue="96.2 µL/min/mg"
chemicalstructure=[2H]C([2H])(c1ccc(OC)nc1)N1C2CC1CN(c1ccc(-c3cc(OC[C@H]4CNCCO4)cn4ncc(C#N)c34)cn1)C2 resultvalue="10.6 µL/min/mg"
chemicalstructure=[2H]C([2H])(c1ccc(OC)nc1)N1C2CC1CN(c1ccc(-c3cc(-c4cnn(C)c4)cn4ncc(C#N)c34)cn1)C2 resultvalue="105 µL/min/mg"
chemicalstructure=[2H]C([2H])(c1ccc(OC)nc1)N1C2CC1CN(c1ccc(-c3cc(-c4cnn(C([2H])([2H])[2H])c4)cn4ncc(C#N)c34)cn1)C2 resultvalue="83.2 µL/min/mg"

----------
Each item that follows carries a reported half-life at 1 μM.
- procedureSummary: Metabolic stability evaluation, liver microsome assay (HLM)
- Format: in vitro ADME
- experimentalSetup: pH 7.4; human liver microsomes 0.5 mg/mL, compound 1 μM, NADPH, 37° C.; read-out: HLM t1/2
experimentalReadout: half-life at 1 μM (min)

compound="[2H]C([2H])(c1ccc(OC)nc1)N1C2CC1CN(c1ccc(-c3cc(OCC(C)(C)O)cn4ncc(C#N)c34)cn1)C2 [Example 11]" experimentalreadout="half-life at 1 μM" resultvalue=14.4
compound="[2H]C([2H])([2H])Oc1ccc(C([2H])([2H])N2C3CC2CN(c2ccc(-c4cc(OCC(C)(C)O)cn5ncc(C#N)c45)cn2)C3)cn1 [Example 13]" experimentalreadout="half-life at 1 μM" resultvalue=15
compound="[2H]C([2H])(c1ccc(OC)nc1)N1C2CC1CN(c1ccc(-c3cc(-c4cnn(C([2H])([2H])[2H])c4)cn4ncc(C#N)c34)cn1)C2 [Example 5]" experimentalreadout="half-life at 1 μM" resultvalue=16.7
compound="[2H]C([2H])(c1ccc(OC)nc1)N1C2CC1CN(c1ccc(-c3cc(OC[C@H]4CNCCO4)cn4ncc(C#N)c34)cn1)C2 [Example 8]" experimentalreadout="half-life at 1 μM" resultvalue=131
compound="[2H]C([2H])([2H])n1cc(-c2cc(-c3ccc(N4CC5CC(C4)N5Cc4ccc(OC)nc4)nc3)c3c(C#N)cnn3c2)cn1 [Example 7]" experimentalreadout="half-life at 1 μM" resultvalue=124
compound="[2H]C([2H])([2H])Oc1ccc(C([2H])([2H])N2C3CC2CN(c2ccc(-c4cc(-c5cnn(C([2H])([2H])[2H])c5)cn5ncc(C#N)c45)cn2)C3)cn1 [Example 6]" experimentalreadout="half-life at 1 μM" resultvalue=12.4
compound="[2H]C([2H])([2H])Oc1ccc(C([2H])([2H])N2C3CC2CN(c2ccc(-c4cc(-c5cnn(C)c5)cn5ncc(C#N)c45)cn2)C3)cn1 [Example 3]" experimentalreadout="half-life at 1 μM" resultvalue=16.2
compound="[2H]C([2H])([2H])Oc1ccc(CN2C3CC2CN(c2ccc(-c4cc(-c5cnn(C([2H])([2H])[2H])c5)cn5ncc(C#N)c45)cn2)C3)cn1 [Example 4]" experimentalreadout="half-life at 1 μM" resultvalue=14.2
compound="[2H]C([2H])([2H])Oc1ccc(CN2C3CC2CN(c2ccc(-c4cc(OCC(C)(C)O)cn5ncc(C#N)c45)cn2)C3)cn1 [Example 12]" experimentalreadout="half-life at 1 μM" resultvalue=14.9
compound="[2H]C([2H])(c1ccc(OC)nc1)N1C2CC1CN(c1ccc(-c3cc(-c4cnn(C)c4)cn4ncc(C#N)c34)cn1)C2 [Example 2]" experimentalreadout="half-life at 1 μM" resultvalue=13.2
compound="[2H]C([2H])([2H])Oc1ccc(CN2C3CC2CN(c2ccc(-c4cc(-c5cnn(C)c5)cn5ncc(C#N)c45)cn2)C3)cn1 [Example 1]" experimentalreadout="half-life at 1 μM" resultvalue=15.8

----------
- procedureSummary: Metabolic stability evaluation, liver microsome assay (HLM)
- Format: in vitro ADME
- experimentalSetup: pH 7.4; human liver microsomes 0.5 mg/mL, compound 1 μM, NADPH, 37° C.
Each item that follows carries a reported log10 microsomal CLint at 1 μM.
experimentalReadout: log10 microsomal CLint at 1 μM (log10 of the value in µL/min/mg)

compound="[2H]C([2H])([2H])Oc1ccc(CN2C3CC2CN(c2ccc(-c4cc(-c5cnn(C)c5)cn5ncc(C#N)c45)cn2)C3)cn1 [Example 1]" experimentalreadout="log10 microsomal CLint at 1 μM" resultvalue=1.94
compound="[2H]C([2H])([2H])Oc1ccc(C([2H])([2H])N2C3CC2CN(c2ccc(-c4cc(-c5cnn(C([2H])([2H])[2H])c5)cn5ncc(C#N)c45)cn2)C3)cn1 [Example 6]" experimentalreadout="log10 microsomal CLint at 1 μM" resultvalue=2.05
compound="[2H]C([2H])([2H])n1cc(-c2cc(-c3ccc(N4CC5CC(C4)N5Cc4ccc(OC)nc4)nc3)c3c(C#N)cnn3c2)cn1 [Example 7]" experimentalreadout="log10 microsomal CLint at 1 μM" resultvalue=1.05
compound="[2H]C([2H])([2H])Oc1ccc(CN2C3CC2CN(c2ccc(-c4cc(OCC(C)(C)O)cn5ncc(C#N)c45)cn2)C3)cn1 [Example 12]" experimentalreadout="log10 microsomal CLint at 1 μM" resultvalue=1.97
compound="[2H]C([2H])([2H])Oc1ccc(CN2C3CC2CN(c2ccc(-c4cc(-c5cnn(C([2H])([2H])[2H])c5)cn5ncc(C#N)c45)cn2)C3)cn1 [Example 4]" experimentalreadout="log10 microsomal CLint at 1 μM" resultvalue=1.99

Source listed as patent US12129266B2.
